testedOn: PTP1B (Homo sapiens)
Sequence (P18031 1-321): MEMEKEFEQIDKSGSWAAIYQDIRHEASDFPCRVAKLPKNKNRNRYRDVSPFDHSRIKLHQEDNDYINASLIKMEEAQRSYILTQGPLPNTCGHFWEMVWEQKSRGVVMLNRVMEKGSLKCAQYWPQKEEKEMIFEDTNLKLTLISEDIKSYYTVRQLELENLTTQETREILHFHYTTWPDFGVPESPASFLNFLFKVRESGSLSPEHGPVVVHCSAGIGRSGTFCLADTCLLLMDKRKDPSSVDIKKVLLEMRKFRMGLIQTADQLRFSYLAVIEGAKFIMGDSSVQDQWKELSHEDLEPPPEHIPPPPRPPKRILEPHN
pIC50: −log10 of the molar value.
Please mark rule met if the recorded pIC50 is equal to or greater than 6, and rule not met if it falls below.

# bool: pIC50 of `CCCCCCCCCCCCn1c(C)ccc1-c1ccc(O[C@H](Cc2ccccc2)C(=O)O)cc1` >= 6
rule met

# bool: pIC50 of `Cc1ccc(-c2ccc(O[C@H](Cc3c[nH]c4ccccc34)C(=O)O)cc2)n1-c1ccc(Br)cc1` >= 6
rule not met

# bool: pIC50 of `Cc1ccc(-c2cc(Br)c(O[C@H](Cc3ccccc3)C(=O)O)c(Br)c2)n1-c1ccc(Br)cc1` >= 6
rule met

# bool: pIC50 of `O=C(O)[C@@H](Cc1ccccc1)Oc1ccc(-c2cccn2-c2ccc(C(F)(F)F)cc2)cc1` >= 6
rule not met

# bool: pIC50 of `Cc1ccc(-n2cccc2-c2ccc(O[C@H](Cc3ccccc3)C(=O)O)cc2)cc1` >= 6
rule not met

---

Reported pIC50 for target or system PTP1B (Homo sapiens, UniProt P18031), by entry.
Remember the convention: pIC50 equals -log10 of concentration in molar.

// map Cc1ccc(-c2ccc(O[C@H](Cc3ccccc3)C(=O)O)cc2)n1-c1ccc(Br)cc1 [Example 6] to recorded pIC50 (system: PTP1B (Homo sapiens, UniProt P18031))
6.30

// map O=C(O)[C@@H](Cc1ccccc1)Oc1ccc(-c2ccc(-c3ccccc3)n2-c2ccc(Br)cc2)cc1 [Example 22] to recorded pIC50 (system: PTP1B (Homo sapiens, UniProt P18031))
6.15

// map Cc1cc(-c2ccc(O[C@H](Cc3ccccc3)C(=O)O)cc2)n(-c2ccc(Br)cc2)c1C [Example 24] to recorded pIC50 (system: PTP1B (Homo sapiens, UniProt P18031))
6.49

// map CCCCCCCCc1ccc(-n2c(C)ccc2-c2ccc(O[C@H](Cc3ccccc3)C(=O)O)cc2)cc1 [Example 94] to recorded pIC50 (system: PTP1B (Homo sapiens, UniProt P18031))
7.05

// map CCCc1cc(C)n(-c2ccc(Br)cc2)c1-c1ccc(O[C@H](Cc2ccccc2)C(=O)O)cc1 [Example 28] to recorded pIC50 (system: PTP1B (Homo sapiens, UniProt P18031))
6.32

// map CCCCCCCCn1c(C)ccc1-c1ccc(O[C@H](Cc2ccccc2)C(=O)O)cc1 [Example 58] to recorded pIC50 (system: PTP1B (Homo sapiens, UniProt P18031))
6.47

// map O=C(O)[C@@H](Cc1ccccc1)Oc1ccc(-c2cccn2-c2ccc(O[C@H](Cc3ccccc3)C(=O)O)cc2)cc1 [Example 16] to recorded pIC50 (system: PTP1B (Homo sapiens, UniProt P18031))
6.39
